# target under test: BRD4 (Homo sapiens)
# experiment summary: BRD4 AlphaScreen assay
# Type: binding
pIC50: −log10 of the molar value.
measure: pIC50

Give BRD4 (Homo sapiens) pIC50 for COc1cc(N2CCN(C)CC2)ccc1Nc1ncc2c(n1)N(C)c1ccccc1C(=O)N2CC(F)(F)F
< 5.00

###

# target under test: DCLK2 (Homo sapiens)
# experiment summary: DCLK2 KINOMEscan binding assay
Listed here: items and their measured pIC50.
Please report pIC50 as the negative decimal logarithm of the molar concentration, giving only the number.

>  <molecule>
COc1cc(N2CCN(C)CC2)ccc1Nc1ncc2c(n1)N(C)c1ccccc1C(=O)N2CC(F)(F)F [DCLK1-IN-1]

>  <pIC50>
7.51

$$$$

Turning to the following molecule.
State its pIC50 on DCLK2 (Homo sapiens): COc1cc(C(=O)N2CCC(N3CCN(C)CC3)CC2)ccc1Nc1ncc2c(n1)N(C)c1ccccc1C(=O)N2C [LRRK2-IN-1]
8.00

###

# target under test: DCLK1-Nluc in HCT116 cells (Homo sapiens, UniProt O15075)
# experiment summary: DCLK1 NanoBRET target engagement assay in HCT116 cells
# Type: cell-based
measure: IC50
Param answer (str): number followed by unit.

>  <cpd smiles>
COc1cc(C(=O)N2CCC(N3CCN(C)CC3)CC2)ccc1Nc1ncc2c(n1)N(C)c1ccccc1C(=O)N2C

>  <result>
400 nM

$$$$

Please look at the following molecule next.
What does the record list as IC50 for COc1cc(N2CCN(C)CC2)ccc1Nc1ncc2c(n1)N(C)c1ccccc1C(=O)N2CC(F)(F)F ?
279 nM

###

# target under test: DCLK2 (Homo sapiens, UniProt Q8N568)
# Sequence (Q8N568 1-766): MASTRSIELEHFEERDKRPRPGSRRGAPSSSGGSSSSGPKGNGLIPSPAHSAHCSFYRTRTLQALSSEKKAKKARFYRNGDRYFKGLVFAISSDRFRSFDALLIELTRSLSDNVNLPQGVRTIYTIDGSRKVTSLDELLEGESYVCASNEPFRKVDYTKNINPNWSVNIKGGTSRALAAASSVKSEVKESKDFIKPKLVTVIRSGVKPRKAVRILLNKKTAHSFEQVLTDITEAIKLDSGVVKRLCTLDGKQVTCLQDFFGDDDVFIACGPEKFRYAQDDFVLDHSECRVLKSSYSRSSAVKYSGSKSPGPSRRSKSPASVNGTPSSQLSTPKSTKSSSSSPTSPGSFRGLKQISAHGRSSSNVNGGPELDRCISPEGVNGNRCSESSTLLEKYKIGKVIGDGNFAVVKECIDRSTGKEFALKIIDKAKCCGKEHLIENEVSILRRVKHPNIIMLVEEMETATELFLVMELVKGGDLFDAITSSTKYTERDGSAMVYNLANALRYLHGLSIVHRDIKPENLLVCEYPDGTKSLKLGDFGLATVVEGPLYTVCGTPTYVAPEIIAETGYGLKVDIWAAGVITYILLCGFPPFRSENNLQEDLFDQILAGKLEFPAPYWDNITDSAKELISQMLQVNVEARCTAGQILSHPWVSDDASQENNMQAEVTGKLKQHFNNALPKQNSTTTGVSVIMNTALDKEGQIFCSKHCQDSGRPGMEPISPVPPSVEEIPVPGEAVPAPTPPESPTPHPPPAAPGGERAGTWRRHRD
# experiment summary: DCLK2 KINOMEscan binding assay
# condition label: read-out: DCLK2 binding assay IC50; KINOMEscan
measure: IC50
Remember to quote the unit after the number.

Please provide the recorded IC50 for CCOc1cc(N2CCC(O)CC2)ccc1Nc1ncc2c(n1)N(C)c1ccccc1C(=O)N2C , tested on DCLK2 (Homo sapiens, UniProt Q8N568).
3.6 µM

###

# target under test: UniProt:Q8N568
# experiment summary: 33P-ATP DCLK2 kinase assay
# Format: biochemical
measure: IC50 (nM)
# unit: nM | format: bare number

# get_value(readout='IC50', item= COc1cc(N2CCN(C)CC2)ccc1Nc1ncc2c(n1)N(C)c1ccccc1C(=O)N2CC(F)(F)F [DCLK1-IN-1] )
103

###

# target under test: ERK5 (Homo sapiens)
# Sequence (Q13164 whole entry): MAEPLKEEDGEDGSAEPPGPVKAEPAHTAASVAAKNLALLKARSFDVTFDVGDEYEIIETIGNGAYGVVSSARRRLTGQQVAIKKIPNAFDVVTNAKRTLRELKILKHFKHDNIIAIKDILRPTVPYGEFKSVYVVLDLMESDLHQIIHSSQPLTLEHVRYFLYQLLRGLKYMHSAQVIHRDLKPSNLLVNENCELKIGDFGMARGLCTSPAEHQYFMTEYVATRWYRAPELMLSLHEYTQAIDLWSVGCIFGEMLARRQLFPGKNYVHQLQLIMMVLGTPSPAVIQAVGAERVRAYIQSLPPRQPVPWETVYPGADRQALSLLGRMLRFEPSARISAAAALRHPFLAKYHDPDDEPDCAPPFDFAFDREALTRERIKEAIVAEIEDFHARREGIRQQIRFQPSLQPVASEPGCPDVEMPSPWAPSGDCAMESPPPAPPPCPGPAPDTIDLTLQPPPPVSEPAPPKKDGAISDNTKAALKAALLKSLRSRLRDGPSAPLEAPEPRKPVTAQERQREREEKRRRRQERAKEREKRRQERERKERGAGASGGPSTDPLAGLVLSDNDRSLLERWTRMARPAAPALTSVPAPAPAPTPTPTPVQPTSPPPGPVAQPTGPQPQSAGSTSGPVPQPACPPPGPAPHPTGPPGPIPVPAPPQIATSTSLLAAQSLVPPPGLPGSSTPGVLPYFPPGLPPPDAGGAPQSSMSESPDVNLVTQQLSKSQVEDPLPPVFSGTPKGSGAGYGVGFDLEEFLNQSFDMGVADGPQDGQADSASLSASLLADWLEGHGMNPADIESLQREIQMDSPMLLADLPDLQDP
# experiment summary: ERK5 KINOMEscan binding assay
measure: IC50 (µM)
The answer is to be given in µM; state only the numeric part.

Which measured IC50 value corresponds to COc1cc(N2CCN(C)CC2)ccc1Nc1ncc2c(n1)N(C)c1ccccc1C(=O)N2CC(F)(F)F [DCLK1-IN-1] ?
1.8

###

# target under test: DCLK2 (Homo sapiens)
# Sequence (Q8N568 1-766): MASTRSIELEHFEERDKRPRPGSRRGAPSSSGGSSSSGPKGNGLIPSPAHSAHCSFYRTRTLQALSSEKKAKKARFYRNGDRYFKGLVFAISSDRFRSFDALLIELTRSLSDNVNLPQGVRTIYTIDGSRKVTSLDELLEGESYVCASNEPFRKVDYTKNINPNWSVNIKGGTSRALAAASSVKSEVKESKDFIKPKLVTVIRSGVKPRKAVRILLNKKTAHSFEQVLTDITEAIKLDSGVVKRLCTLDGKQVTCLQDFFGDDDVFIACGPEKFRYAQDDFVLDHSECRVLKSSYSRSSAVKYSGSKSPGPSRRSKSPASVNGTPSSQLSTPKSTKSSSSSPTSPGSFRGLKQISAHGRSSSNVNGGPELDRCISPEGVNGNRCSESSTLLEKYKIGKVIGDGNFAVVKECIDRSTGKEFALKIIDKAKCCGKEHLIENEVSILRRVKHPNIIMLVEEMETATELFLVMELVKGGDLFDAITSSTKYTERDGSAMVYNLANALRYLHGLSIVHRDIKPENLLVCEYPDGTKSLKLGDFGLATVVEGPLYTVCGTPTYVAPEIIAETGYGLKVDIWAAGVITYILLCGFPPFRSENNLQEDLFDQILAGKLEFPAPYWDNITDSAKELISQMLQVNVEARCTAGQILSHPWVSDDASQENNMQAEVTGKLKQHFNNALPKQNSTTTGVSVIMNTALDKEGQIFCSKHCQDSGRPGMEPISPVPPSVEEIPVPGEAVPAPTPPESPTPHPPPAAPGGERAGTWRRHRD
# experiment summary: 33P-ATP DCLK2 kinase assay
# Format: biochemical
# condition label: read-out: DCLK2 kinase assay IC50; 33P-ATP; ATP 100 μM (Km)
measure: IC50 (nM)
Kindly provide the numeric value in nM only, without the unit symbol.

What does the record list as IC50 for CCOc1cc(N2CCC(O)CC2)ccc1Nc1ncc2c(n1)N(C)c1ccccc1C(=O)N2C [XMD8-92] ?
385

###

# target under test: UniProt O15075
# Sequence (O15075 1-740): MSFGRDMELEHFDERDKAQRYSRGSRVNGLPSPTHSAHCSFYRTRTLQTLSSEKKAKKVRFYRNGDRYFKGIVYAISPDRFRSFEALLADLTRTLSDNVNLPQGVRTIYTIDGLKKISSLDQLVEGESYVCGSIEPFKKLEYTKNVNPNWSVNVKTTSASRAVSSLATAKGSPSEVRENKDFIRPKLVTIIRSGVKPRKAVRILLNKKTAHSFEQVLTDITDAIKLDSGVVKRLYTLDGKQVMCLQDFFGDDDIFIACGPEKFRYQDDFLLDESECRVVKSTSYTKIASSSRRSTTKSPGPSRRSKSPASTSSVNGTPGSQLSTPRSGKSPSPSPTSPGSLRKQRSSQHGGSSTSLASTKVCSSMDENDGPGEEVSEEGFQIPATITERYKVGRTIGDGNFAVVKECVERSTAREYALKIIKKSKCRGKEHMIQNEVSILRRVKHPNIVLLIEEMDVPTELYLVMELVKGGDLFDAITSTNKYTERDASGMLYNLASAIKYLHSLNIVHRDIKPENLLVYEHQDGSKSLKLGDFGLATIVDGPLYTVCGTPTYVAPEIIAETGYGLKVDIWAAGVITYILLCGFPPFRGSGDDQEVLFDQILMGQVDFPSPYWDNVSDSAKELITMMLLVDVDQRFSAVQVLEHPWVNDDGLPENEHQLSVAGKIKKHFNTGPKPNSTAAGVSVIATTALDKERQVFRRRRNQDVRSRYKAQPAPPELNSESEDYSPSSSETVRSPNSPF
# experiment summary: DCLK1 KINOMEscan binding assay
# condition label: read-out: DCLK1 binding assay IC50; KINOMEscan
measure: pIC50
# pIC50: negative log10 of molar concentration; output just the value

Record request: pIC50 value, item CCOc1cc(N2CCC(O)CC2)ccc1Nc1ncc2c(n1)N(C)c1ccccc1C(=O)N2C [XMD8-92]
5.85

###

# Test system: PATU-8902 cells
# experiment summary: Cell viability, ultra-low adherent 3D-spheroid culture, PATU-8902
# Type: cell-based, human
# condition label: Homo sapiens, PaTu 8902, 120 h, read-out: PATU-8902 cells 3D spheroid culture IC50
Below, each entry is listed alongside its reported IC50.

>  <compound>
CC(=O)Nc1cccc(-n2c(=O)n(C3CC3)c(=O)c3c(Nc4ccc(I)cc4F)n(C)c(=O)c(C)c32)c1 [Trametinib]

>  <IC50>
< 0.63 nM

$$$$

What does the record list as IC50 for COc1cc(C(=O)N2CCC(N3CCN(C)CC3)CC2)ccc1Nc1ncc2c(n1)N(C)c1ccccc1C(=O)N2C [LRRK2-IN-1] ?
> 1000 nM

What do you get for COc1cc(N2CCN(C)CC2)ccc1Nc1ncc2c(n1)N(C)c1ccccc1C(=O)N2CC(F)(F)F [DCLK1-IN-1] ?
> 20000 nM
